For each entry below, report its melting point value.

The following compounds have reported results that may help.
{"columns": ["Compound", "melting point"],
 "data": [
  ["Nc1ncn(Cc2cccc(Br)c2)n1", "147 to 149 °C"],
  ["O=C(O)c1ccc2[nH]c(=O)c(=O)[nH]c2c1", "250 to 252 °C"],
  ["O=c1ccc([N+](=O)[O-])cn1CCCl", "130 to 132 °C"],
  ["Cc1[nH]c(-c2cccnc2)nc(=NN)c1C", "194 to 196 °C"],
  ["Cc1nc(S(=O)(=O)Oc2c(F)c(F)c(F)c(F)c2F)sc1C", "98 to 100 °C"],
  ["COc1ccccc1CC(C)CC(=O)O (centres undefined)", "49 to 51 °C"]
]}

For each of the compounds below, state melting point.
1. CC(C)(C)c1noc(-c2cc(Cl)ccc2N)n1
2. CCN(Cc1ccc2c(c1)OCCO2)C(=O)CCl
3. Cc1ccccc1CCNC(=O)CCl
4. O=C(O)C=Cc1cn(-c2ccccc2)nc1-c1ccc2c(c1)OCCO2

["132 to 134 °C", "213 to 215 °C", "68 to 70 °C", "250 to 252 °C"]

For each of the compounds below, state melting point.
1. Nc1cccc(N2CCS(=O)(=O)CC2)c1
2. Cc1cc(C(=O)C=O)ccc1F
3. COC(=O)c1c(F)cccc1S(=O)(=O)Cl
4. COCCOc1ccc2[nH]ccc2c1
5. O=C(O)c1csc(S(=O)(=O)Cl)c1
6. COc1ccc(CC2(C)NC(=O)NC2=O)cc1 (centres undefined)
7. O=C(O)c1sc2cc(Cl)cc(Cl)c2c1Cl
8. Nc1ccc(-c2ccc[nH]2)cc1

1. 151 to 153 °C
2. 76 to 78 °C
3. 46 to 48 °C
4. 61 to 63 °C
5. 130 to 132 °C
6. 196 to 198 °C
7. 248 to 250 °C
8. 120 to 122 °C

For each of the compounds below, state melting point.
1. COc1ccccc1C(NC(=O)OC(C)(C)C)C(N)=NO (centres undefined)
2. COc1ccc(S(N)(=O)=O)cc1NC(C)=O
3. CCc1ccc(N)cc1[N+](=O)[O-]
4. Cc1ccc(Cl)nc1CC(=O)O
5. CC(NC(=O)CCl)c1ccco1 (centres undefined)
6. CCOC(=O)Nc1nnc(S)s1
7. O=Cc1ccccc1OCc1ccccn1
8. NCC1(C(N)=O)CCCC1

185 to 187 °C
217 to 219 °C
44 to 46 °C
120 to 122 °C
63 to 65 °C
205 to 207 °C
73 to 75 °C
61 to 63 °C

For each of the compounds below, state melting point.
1. O=C(O)c1occc1CSc1ccccc1
2. CNS(=O)(=O)c1ccc(N)cc1
3. Cc1noc(S)n1

["114 to 116 °C", "110 to 112 °C", "123 to 125 °C"]

====

For each entry below, report its melting point value.

The following compounds have reported results that may help.
{"columns": ["Compound", "melting point"],
 "data": [
  ["O=C(O)Cc1ccc(F)c(Br)c1", "64 to 66 °C"],
  ["Nc1noc(COc2ccc(F)cc2)n1", "154 to 156 °C"],
  ["O=C(O)CCC(=O)N1CCSc2ccccc21", "134 to 136 °C"],
  ["CC(C)c1cc(C(=O)O)cc(O)n1", "309 to 311 °C"],
  ["CCc1ccc(C(=O)O)cc1S(=O)(=O)Cl", "181 to 183 °C"]
]}

For each of the compounds below, state melting point.
1. CC1CC1C(=O)NN (centres undefined)
2. COC(=O)c1ccc(C(=O)O)o1
3. COCc1c(C(=O)O)oc2ccccc12

1. 85 to 87 °C
2. 194 to 196 °C
3. 119 to 121 °C
